# experimental.details: Permeability across artificial membrane
# Format: ADME
# conditions.used: PAMPA; read-out: permeability
measured.property: Papp (×10⁻⁶ cm/s)
Write it as a number; the unit ×10⁻⁶ cm/s goes unstated.

CCCCN(c1cccc(-c2ccc(OC(F)(F)F)cc2)c1Cl)S(=O)(=O)c1ccc(OC(C)C(=O)O)c(C)c1C (configuration not stated)	25

Shift focus to the following entry.
Indicate the recorded Papp value for this molecule: CCCCN(c1cccc(-c2ccc(C(F)(F)F)cc2)c1Cl)S(=O)(=O)c1ccc(OC(C)C(=O)O)c(C)c1C (configuration not stated)
25

----------
# target: Peroxisome proliferator-activated receptor delta (Homo sapiens, UniProt Q03181)
# Sequence (Q03181 whole entry): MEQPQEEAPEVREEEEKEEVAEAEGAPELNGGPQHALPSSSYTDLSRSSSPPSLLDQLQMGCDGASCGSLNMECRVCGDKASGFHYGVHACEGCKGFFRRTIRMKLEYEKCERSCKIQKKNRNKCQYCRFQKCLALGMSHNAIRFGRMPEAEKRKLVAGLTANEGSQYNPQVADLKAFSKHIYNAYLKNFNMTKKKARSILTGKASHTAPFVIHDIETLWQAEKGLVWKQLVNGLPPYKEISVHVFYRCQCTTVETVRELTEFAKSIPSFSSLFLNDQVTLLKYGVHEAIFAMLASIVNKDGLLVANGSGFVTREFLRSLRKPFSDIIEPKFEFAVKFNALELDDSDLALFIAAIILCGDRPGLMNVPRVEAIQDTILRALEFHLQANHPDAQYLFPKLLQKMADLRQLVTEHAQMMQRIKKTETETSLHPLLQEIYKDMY
pIC50: −log10 of the molar value.
Everything with pIC50 lower than 7 is N; everything else, including exactly 7, is Y.

Here's what some known entries look like.
CCCCN(c1cc(-c2ccc(Cl)cc2)ccc1C)S(=O)(=O)c1ccc(OC(C)C(=O)O)c(C)c1C (configuration not stated)	N
Cc1c(-c2ccc(Cl)cc2)cccc1N(CC1CC1)S(=O)(=O)c1ccc(OC(C)C(=O)O)c(C)c1C (configuration not stated)	N
CCCCN(c1cccc(-c2ccc(Cl)cc2)c1C)S(=O)(=O)c1ccc(OC(C)C(=O)O)c(F)c1Cl (configuration not stated)	N
Cc1cc(S(=O)(=O)N(CCC(C)C)c2cccc(-c3ccc(C(F)(F)F)cc3)c2)ccc1OCC(=O)O	N
CCCCN(c1cccc(-c2ccc(Cl)cc2)c1C)S(=O)(=O)c1ccc(OCC(=O)O)c(C)c1C	Y
CCCCN(c1ccc(C)c(-c2ccc(Cl)cc2)c1)S(=O)(=O)c1ccc(OC(C)C(=O)O)c(C)c1C (configuration not stated)	N

Hello, I need to know if CCCCN(c1cccc(-c2ccc(Cl)cc2)c1Cl)S(=O)(=O)c1ccc(OC(C)C(=O)O)c(C)c1C (configuration not stated) has measured pIC50 not below 7. Thanks!
Y

In plain terms: is recorded pIC50 at least 7 for CCCCN(c1cccc(-c2ccc(Cl)cc2)c1C)S(=O)(=O)c1ccc(OC(C)C(=O)O)c(OC)c1OC (configuration not stated) ?
N

Please indicate if the recorded pIC50 for Cc1c(-c2ccc(Cl)cc2)cccc1N(CCCC(F)(F)F)S(=O)(=O)c1ccc(OC(C)C(=O)O)c(C)c1C (configuration not stated) meets or exceeds 7.
N

Can CCCCCN(c1cccc(-c2ccc(Cl)cc2)c1C)S(=O)(=O)c1ccc(OC(C)C(=O)O)c(C)c1C (configuration not stated) be said to have pIC50 at or above 7?
N

Tell me whether pIC50 is at least 7 here: COCCN(c1cccc(-c2ccc(Cl)cc2)c1C)S(=O)(=O)c1ccc(OC(C)C(=O)O)c(C)c1C (configuration not stated)
N

// inclusive: pIC50 at least 7? input: CCCCN(c1cccc(-c2ccc(Cl)cc2)c1C)S(=O)(=O)c1ccc(O[C@@H](C)C(=O)O)c(C)c1C
N

----------
The next entries give measured IC50 for Peroxisome proliferator-activated receptor gamma (Homo sapiens, UniProt P37231).
Quick reminder: number only, in µM, skip the unit.

Answered examples (3):
CCCCN(c1cccc(-c2ccc(Cl)cc2)c1C)S(=O)(=O)c1ccc(OC(C)C(=O)O)c(C2CCCCC2)c1 (centres undefined)	7.94
CCCCN(c1cc(-c2ccc(Cl)cc2)ccc1C)S(=O)(=O)c1ccc(OC(C)C(=O)O)c(C)c1C (centres undefined)	6.31
CCCCN(c1cc(-c2ccc(Cl)cc2)c(F)cc1F)S(=O)(=O)c1ccc(OC(C)C(=O)O)c(C)c1C (centres undefined)	1.58

// Input: Cc1cc(S(=O)(=O)N(CCC(C)C)c2cccc(-c3ccc(C(F)(F)F)cc3)c2)ccc1OCC(=O)O . Output its IC50 only.
5.01

----------
# target: Cytochrome P450 2C19 (Homo sapiens)
# Sequence (P33261 whole entry): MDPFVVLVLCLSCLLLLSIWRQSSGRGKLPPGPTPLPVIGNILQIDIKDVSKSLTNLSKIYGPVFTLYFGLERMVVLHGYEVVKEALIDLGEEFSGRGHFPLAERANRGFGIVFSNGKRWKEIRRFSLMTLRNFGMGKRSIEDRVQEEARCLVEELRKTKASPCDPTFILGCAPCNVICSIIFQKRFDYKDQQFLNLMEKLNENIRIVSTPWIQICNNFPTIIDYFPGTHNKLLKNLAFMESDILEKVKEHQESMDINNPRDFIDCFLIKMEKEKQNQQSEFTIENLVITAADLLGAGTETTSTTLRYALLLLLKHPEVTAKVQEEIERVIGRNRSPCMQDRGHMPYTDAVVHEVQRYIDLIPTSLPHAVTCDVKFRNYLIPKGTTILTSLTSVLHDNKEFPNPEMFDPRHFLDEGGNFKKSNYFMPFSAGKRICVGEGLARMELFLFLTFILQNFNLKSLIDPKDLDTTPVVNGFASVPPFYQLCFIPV
pIC50: −log10 of the molar value.
measured.property: pIC50

Supply measured pIC50 of CCCCN(c1cccc(-c2ccc(OC(F)(F)F)cc2)c1Cl)S(=O)(=O)c1ccc(OC(C)C(=O)O)c(C)c1C (stereo unspecified) in your reply.
< 5.50

----------
# target: Peroxisome proliferator-activated receptor alpha (Homo sapiens)
# Sequence (Q07869 whole entry): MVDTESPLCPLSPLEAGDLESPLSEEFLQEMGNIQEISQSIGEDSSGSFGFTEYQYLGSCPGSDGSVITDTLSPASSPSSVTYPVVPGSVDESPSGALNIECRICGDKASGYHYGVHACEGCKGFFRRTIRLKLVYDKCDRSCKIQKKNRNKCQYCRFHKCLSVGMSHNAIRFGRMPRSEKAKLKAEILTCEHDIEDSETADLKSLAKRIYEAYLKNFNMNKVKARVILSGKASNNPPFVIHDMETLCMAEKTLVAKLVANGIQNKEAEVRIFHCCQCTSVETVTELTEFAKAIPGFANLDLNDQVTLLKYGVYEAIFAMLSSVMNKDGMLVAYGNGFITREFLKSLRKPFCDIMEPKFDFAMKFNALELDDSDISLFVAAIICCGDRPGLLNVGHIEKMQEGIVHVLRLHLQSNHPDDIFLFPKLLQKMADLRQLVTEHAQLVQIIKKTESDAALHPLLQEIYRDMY
# experimental.details: Displacement of [3H]GW 2433 from human PPARalpha by scintillation proximity assay
measured.property: IC50 (µM)
Give just the number in µM; leave the unit off.

CCCCN(c1cccc(-c2ccc(Cl)cc2)c1C)S(=O)(=O)c1ccc(OC(C)C(=O)O)c(Cl)c1Cl (stereo not drawn)	10
CCCCN(c1cccc(-c2ccc(OC(F)(F)F)cc2)c1Cl)S(=O)(=O)c1ccc(OC(C)C(=O)O)c(C)c1C (stereo not drawn)	10
CCCCC(Oc1ccc(S(=O)(=O)N(CCCC)c2cccc(-c3ccc(Cl)cc3)c2C)c(C)c1C)C(=O)O (stereo not drawn)	10
CCCCN(c1cc(-c2ccc(Cl)cc2)c(F)cc1F)S(=O)(=O)c1ccc(OC(C)C(=O)O)c(C)c1C (stereo not drawn)	10
CCCCN(c1ccc(F)c(-c2ccc(Cl)cc2)c1)S(=O)(=O)c1ccc(OC(C)C(=O)O)c(C)c1C (stereo not drawn)	20
Cc1c(-c2ccc(Cl)cc2)cccc1N(CCCC(F)(F)F)S(=O)(=O)c1ccc(OC(C)C(=O)O)c(C)c1C (stereo not drawn)	20

Here is another compound to look at.
Complete the entry with IC50 for CCCCN(c1cc(-c2ccc(Cl)cc2)cc(C(F)(F)F)c1)S(=O)(=O)c1ccc(OC(C)C(=O)O)c(C)c1C (stereo not drawn)
12.6

----------
# target: Peroxisome proliferator-activated receptor gamma (Homo sapiens, UniProt P37231)
# Sequence (P37231 whole entry): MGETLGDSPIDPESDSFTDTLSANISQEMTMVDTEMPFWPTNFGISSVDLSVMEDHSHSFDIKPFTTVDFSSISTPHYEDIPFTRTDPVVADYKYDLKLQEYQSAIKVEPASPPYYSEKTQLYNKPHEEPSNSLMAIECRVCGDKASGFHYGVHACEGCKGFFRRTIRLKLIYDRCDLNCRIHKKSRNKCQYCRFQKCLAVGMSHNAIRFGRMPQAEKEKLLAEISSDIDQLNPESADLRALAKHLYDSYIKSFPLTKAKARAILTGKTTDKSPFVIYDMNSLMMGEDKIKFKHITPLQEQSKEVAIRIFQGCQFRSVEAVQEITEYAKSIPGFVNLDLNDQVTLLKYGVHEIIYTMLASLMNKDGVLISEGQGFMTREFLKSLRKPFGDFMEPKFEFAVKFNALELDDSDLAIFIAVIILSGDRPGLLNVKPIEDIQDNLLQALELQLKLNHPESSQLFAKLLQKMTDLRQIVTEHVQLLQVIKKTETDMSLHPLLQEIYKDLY
# pIC50 annotations
Remember the convention: pIC50 equals -log10 of concentration in molar.

CCCCN(c1cc(-c2ccc(Cl)cc2)cc(C(F)(F)F)c1)S(=O)(=O)c1ccc(OC(C)C(=O)O)c(C)c1C (centres undefined)	5.30

State its pIC50: CCCCN(c1cccc(-c2ccc(C(F)(F)F)cc2)c1Cl)S(=O)(=O)c1ccc(OC(C)C(=O)O)c(C)c1C (centres undefined)
5.20

----------
# target: Cytochrome P450 3A4 (Homo sapiens)
# Sequence (P08684 whole entry): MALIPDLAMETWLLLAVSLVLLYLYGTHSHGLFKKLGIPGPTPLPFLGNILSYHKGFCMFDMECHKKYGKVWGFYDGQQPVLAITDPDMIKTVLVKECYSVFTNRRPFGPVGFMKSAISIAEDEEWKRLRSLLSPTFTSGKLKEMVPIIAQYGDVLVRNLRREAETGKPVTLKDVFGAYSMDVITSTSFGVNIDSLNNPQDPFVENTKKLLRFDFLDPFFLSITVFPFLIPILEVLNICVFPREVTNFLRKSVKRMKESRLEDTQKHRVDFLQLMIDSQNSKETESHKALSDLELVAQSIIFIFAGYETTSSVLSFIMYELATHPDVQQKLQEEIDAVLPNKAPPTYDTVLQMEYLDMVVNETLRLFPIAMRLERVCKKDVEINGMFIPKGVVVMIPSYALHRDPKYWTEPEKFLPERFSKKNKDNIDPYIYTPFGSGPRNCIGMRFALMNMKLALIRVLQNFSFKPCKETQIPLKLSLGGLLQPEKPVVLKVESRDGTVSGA
measured.property: IC50

Please report IC50 with Cytochrome P450 3A4 (Homo sapiens) for item CCCCN(c1cccc(-c2ccc(C(F)(F)F)cc2)c1Cl)S(=O)(=O)c1ccc(OC(C)C(=O)O)c(C)c1C (stereo unspecified) .
> 3.16 µM

----------
EC50 values, listed per item
# target: Peroxisome proliferator-activated receptor delta (Homo sapiens, UniProt Q03181)
# experimental.details: Induction of human PPARdelta-mediated CPT1a gene expression in human skeletal muscle
# Format: tissue-based, Muscle tissue
Report the value in nM with no unit label.

CCCCN(c1cccc(-c2ccc(OC(F)(F)F)cc2)c1Cl)S(=O)(=O)c1ccc(OC(C)C(=O)O)c(C)c1C (configuration not stated)	10

Below: the item to evaluate.
Please supply the value of reported EC50 for the item CCCCN(c1cccc(-c2ccc(C(F)(F)F)cc2)c1Cl)S(=O)(=O)c1ccc(OC(C)C(=O)O)c(C)c1C (configuration not stated)
3.98

----------
# target: Peroxisome proliferator-activated receptor alpha (Homo sapiens)
# experimental.details: Displacement of [3H]GW 2433 from human PPARalpha by scintillation proximity assay
measured.property: IC50 (µM)
State the answer as a number, implicitly in µM.

A selection of reference data follows.
CCCCN(c1cccc(-c2cccc(Cl)c2)c1C)S(=O)(=O)c1ccc(OC(C)C(=O)O)c(C)c1C (centres undefined)	7.94
CCCCN(c1cccc(-c2ccc(Cl)cc2)c1C)S(=O)(=O)c1ccc(OC(C)C(=O)O)c(C2CCCCC2)c1 (centres undefined)	15.8

Look up and report measured IC50 for this entry: CCCCN(c1cccc(-c2ccc(Cl)cc2)c1OC)S(=O)(=O)c1ccc(OC(C)C(=O)O)c(C)c1C (centres undefined)
12.6

----------
# target: Peroxisome proliferator-activated receptor delta (Homo sapiens)
Label scheme, based on EC50: lower band = under 40 nM, central band = from 40 nM up to 400 nM, upper band = 400 nM and over

Sample answers from the record:
CCCCN(c1cccc(-c2ccc(Cl)cc2)c1C)S(=O)(=O)c1ccc(OC(C)C(=O)O)c(Cl)c1Cl (centres undefined)	central band
CCCCN(c1cccc(-c2ccc(Cl)cc2)c1C)S(=O)(=O)c1ccc(OC(C)C(=O)O)c(C2CCCCC2)c1 (centres undefined)	lower band
CCCCN(c1cccc(-c2ccc(Cl)cc2)c1C)S(=O)(=O)c1ccc(O[C@H](C)C(=O)O)c(C)c1C	lower band
CCCCN(c1cccc(-c2ccc(Cl)cc2)c1C)S(=O)(=O)c1ccc(OC(CCC)C(=O)O)c(C)c1C (centres undefined)	upper band
CCCCN(c1cccc(-c2ccccc2Cl)c1C)S(=O)(=O)c1ccc(OC(C)C(=O)O)c(C)c1C (centres undefined)	upper band
Cc1cc(S(=O)(=O)N(CCC(C)C)c2cccc(-c3ccc(C(F)(F)F)cc3)c2)ccc1OCC(=O)O	central band

Band assignment needed for CCCCN(c1cc(-c2ccc(Cl)cc2)ccc1OC(F)(F)F)S(=O)(=O)c1ccc(OC(C)C(=O)O)c(C)c1C (centres undefined) please.
upper band

Form: Item = CCCCN(c1cccc(-c2ccc(Cl)cc2)c1C)S(=O)(=O)c1ccc(O[C@@H](C)C(=O)O)c(C)c1C ; Class = ?
central band

Dear colleague, I would appreciate it if you could identify the bin for CCCCN(c1cccc(-c2ccc(C(F)(F)F)cc2)c1Cl)S(=O)(=O)c1ccc(OC(C)C(=O)O)c(C)c1C (centres undefined) and reply at your convenience.
lower band

Could you tell me which band CCCCN(c1cc(-c2ccc(Cl)cc2)c(F)cc1F)S(=O)(=O)c1ccc(OC(C)C(=O)O)c(C)c1C (centres undefined) belongs to?
upper band

Which band does Cc1c(-c2ccc(Cl)cc2)cccc1N(CCCC(F)(F)F)S(=O)(=O)c1ccc(OC(C)C(=O)O)c(C)c1C (centres undefined) fall in?
upper band

Each compound maps to one class by EC50. Which class for CCCCN(c1ccc(C)c(-c2ccc(Cl)cc2)c1)S(=O)(=O)c1ccc(OC(C)C(=O)O)c(C)c1C (centres undefined) ?
central band

Class for CCCCC(Oc1ccc(S(=O)(=O)N(CCCC)c2cccc(-c3ccc(Cl)cc3)c2C)c(C)c1C)C(=O)O (centres undefined) ?
upper band

# bin label for CCCCN(c1cccc(-c2ccc(C)cc2)c1C)S(=O)(=O)c1ccc(OC(C)C(=O)O)c(C)c1C (centres undefined)
lower band
